Kindly state plant injury at 250 g/ha for each of the entries shown.
System: corn (Zea mays)
Assay: Test G Post-Emergence Protocol
Format: in vivo
Details: Zea mays, post-emergence, 312 h, 250 g ai/ha, evaluated after 13 days, 100=total damage to plant, 0=no damage to plant, read-out: Corn damage rating
Answers are plain numbers, in %.

Known plant injury at 250 g/ha results, listed for orientation:
# COMPOUND, plant injury at 250 g/ha [%]
rows = [
    ("COc1cc(C2CN(C)C(=O)C2C(=O)Nc2cccc(F)c2F)cc(Cl)c1OC (stereo not shown)", 80),
    ("CN1C[C@H](c2cccc(C(C)(C)C#N)c2)[C@@H](C(=O)Nc2ccccc2S(C)(=O)=O)C1=O (racemic)", 0),
    ("COc1cc(C2CN(C)C(=O)C2C(=O)Nc2cccc(F)c2F)cc(F)c1F (stereo not shown)", 70),
    ("CN1C[C@H](c2cccc(C(F)F)c2)[C@@H](C(=O)Nc2cnccc2C(F)(F)F)C1=O (racemic)", 70),
    ("Cc1cc([C@H]2CN(C)C(=O)[C@@H]2C(=O)Nc2cccc(F)c2F)cnn1 (racemic)", 0),
    ("CN1C[C@H](c2ccc(C(F)(F)F)cc2)[C@@H](C(=O)Nc2ccc[n+]([O-])c2F)C1=O (racemic)", 0),
]

Now turn to the next compound.
input: Tell us which plant injury at 250 g/ha value is on record for COc1c(C)cc(C2CN(C)C(=O)C2C(=O)Nc2cccc(F)c2F)cc1C (stereo not shown)
output: 80
